Assay system Human immunodeficiency virus type 1 protease (Human immunodeficiency virus 1); read-out recorded as log10 Ki.
Values are log10 of Ki in nM.

Guide cases for log10 Ki, answers given:
INSERT INTO assay_data (compound, property_label, endpoint_result) VALUES
  ('CNC(=O)[C@@H](NC(=O)[C@H](CCc1ccccc1)[C@@H](O)[C@H](O)[C@@H](CCc1ccccc1)C(=O)N[C@H](C(=O)NC)C(C)C)C(C)C', 'log10 Ki', -0.40),
  ('O=C(NC1c2ccccc2C[C@H]1O)[C@H](OCc1ccccc1)[C@H](O)[C@@H](O)[C@@H](OCc1ccccc1)C(=O)N[C@H]1c2ccccc2C[C@H]1O (stereo not given in full)', 'log10 Ki', -0.22);

Request - read-out log10 Ki | tested on Human immunodeficiency virus type 1 protease (Human immunodeficiency virus 1) | compound O=C(NC1c2ccccc2C[C@H]1O)[C@H](CCc1ccccc1)[C@@H](O)[C@H](O)[C@@H](CCc1ccccc1)C(=O)N[C@H]1c2ccccc2C[C@H]1O (stereo not given in full) 0.04

Record lookup: for Human immunodeficiency virus type 1 protease (Human immunodeficiency virus 1), what log10 Ki belongs to CNC(=O)[C@@H](NC(=O)[C@H](CCc1ccccc1)[C@H](O)[C@H](O)[C@@H](CCc1ccccc1)C(=O)N[C@H](C(=O)NC)C(C)C)C(C)C ? 2.05

# value lookup — system Human immunodeficiency virus type 1 protease (Human immunodeficiency virus 1), readout log10 Ki, item O=C(NC1c2ccccc2C[C@H]1O)[C@H](CCc1ccccc1)[C@H](O)[C@H](O)[C@@H](CCc1ccccc1)C(=O)N[C@H]1c2ccccc2C[C@H]1O (stereo not given in full) 1.45

* * *

Tested on: MT4
experiment description: Inhibitory activity against MT-4 cells, in the presence of human serum
Assay type: functional
assay setup: read-out: ED50 (the source's name)
property label: EC50 (µM)
Field format: number, assumed µM, no unit text.

Example entries begin here.
INSERT INTO assay_data (compound, endpoint_result) VALUES
  ('CNC(=O)[C@@H](NC(=O)[C@H](CCc1ccccc1)[C@@H](O)[C@H](O)[C@@H](CCc1ccccc1)C(=O)N[C@H](C(=O)NC)C(C)C)C(C)C', 1.4),
  ('O=C(NC1c2ccccc2C[C@H]1O)[C@H](CCc1ccccc1)[C@@H](O)[C@H](O)[C@@H](CCc1ccccc1)C(=O)N[C@H]1c2ccccc2C[C@H]1O (stereo partly specified)', 0.39),
  ('CNC(=O)[C@@H](NC(=O)[C@H](OCc1ccccc1)[C@H](O)[C@@H](O)[C@@H](OCc1ccccc1)C(=O)N[C@H](C(=O)NC)C(C)C)C(C)C', 34),
  ('O=C(NC1c2ccccc2C[C@H]1O)[C@H](CCc1ccccc1)[C@H](O)[C@H](O)[C@@H](CCc1ccccc1)C(=O)N[C@H]1c2ccccc2C[C@H]1O (stereo partly specified)', 15);

// moving on: another record for EC50
Fill in the blank: the reported EC50 of O=C(NC1c2ccccc2C[C@H]1O)[C@H](OCc1ccccc1)[C@H](O)[C@@H](O)[C@@H](OCc1ccccc1)C(=O)N[C@H]1c2ccccc2C[C@H]1O (stereo partly specified) is ____. 1.5
